system: U2OS; assay: Multiplex assay against U2OS; assay type: toxicity, cell-based; settings: human, 12 h, 1 µM, compound concentration 1 uM, replicate 2
# binarize Total Cell Count: threshold 80 inclusive, high side condition met, low side condition not met

Cc1c[nH]c2nccc(Oc3c(F)cc(Nc4cc(Cl)nc(N)n4)cc3F)c12	condition not met
C=CC(=O)Nc1cccc(Sc2nc(Nc3ccc(N4CCN(C)CC4)cc3)ncc2Cl)c1	condition met
CC(C)Oc1ccccc1C(=O)Nc1ccccc1C(=O)Nc1cccc(S(=O)(=O)C(F)(F)F)c1	condition not met
C=CC(=O)Nc1cccc(Oc2nc(Nc3ccc(N4CCN(C)CC4)cc3OC)ncc2Cl)c1	condition met

Reported Total Cell Count at or above 80? Cc1ccc(C)c(Oc2ccncc2C(=O)N2CCN(C3CC3)c3ccccc32)c1
condition not met

Then what about the molecule O=c1[nH]c2ccccc2n1C1CCN(Cc2ccc(-c3[nH]c4cc5ncnc5cc4nc3-c3ccccc3)cc2)CC1 ?
condition met

Then what about the molecule CC(C)CC(=O)Nc1[nH]nc2c1CN(C(=O)C1CCN(C)CC1)C2(C)C ?
condition met

Then what about the molecule Cc1cc(C)c(-n2ccn3nc(-c4cccnc4)cc23)cc1NC(=O)c1cc(C#N)cc(S(F)(F)(F)(F)F)c1 ?
condition met

Then what about the molecule Cc1ccc2c(c1)c1c(n2CCc2ccc(C)nc2)CCN(C)C1 [LATREPIRDINE] ?
condition not met

Then what about the molecule C=CC(=O)Nc1ccc2[nH]c(=O)n(C3CCN(Cc4ccc(-c5nc6cc[nH]c(=O)c6cc5-c5ccccc5)cc4)CC3)c2c1 ?
condition met

Then what about the molecule COC(=O)C1=C(C)NC(C)=C(C(=O)OCCCN2CCC(c3ccccc3)(c3ccccc3)CC2)[C@H]1c1cccc([N+](=O)[O-])c1 ?
condition met

Then what about the molecule CCOC(=O)Nc1cc(-c2ccc(C)c(NS(C)(=O)=O)c2)nn2c(C)nnc12 ?
condition met

Then what about the molecule CCc1ccc(OCc2ccccc2C(=O)Nc2ccc3nc(C)cc(N)c3c2)cc1.Cl ?
condition not met

Then what about the molecule CC(C)NC(=O)N1CC[C@H](NC2=Nc3cc(F)ccc3N(CC(F)F)c3ccc(Cl)cc32)C1 ?
condition met

###

system: Fibroblast; test: Multiplex assay against human fibroblast; type: toxicity, cell-based; conditions: 12 h, 10 µM, compound concentration 10 uM, replicate 2
Population Pyknosed Nuclei (%) by entry:
Supply the numeric figure in %, leaving out any unit text.

COc1ccc(-c2ccc3ncc4c(c3c2)n(-c2ccc(N3CCNCC3)c(C(F)(F)F)c2)c(=O)n4C)cn1.O=C(O)/C=C\C(=O)O	19

Fill in the blank: the reported Population Pyknosed Nuclei (%) of CN1CCN(Cc2ccc(Nc3ncc(Cl)c(Nc4ccccc4S(=O)(=O)N(C)C)n3)cc2)CC1 is ____.
22

Then what about the molecule C=CC(=O)Nc1ccc2[nH]c(=O)n(C3CCN(Cc4ccc(-c5nc6cc[nH]c(=O)c6cc5-c5ccccc5)cc4)CC3)c2c1 ?
12

Then what about the molecule COc1cc(Nc2nccc(-c3cnn4nc(OC)ccc34)n2)cc(C(F)(F)F)c1 ?
11

Then what about the molecule COc1cc2ncn(-c3cc(OCc4ccccc4C(F)(F)F)c(C(N)=O)s3)c2cc1OC [GW843682X] ?
11

Then what about the molecule CC(C)Oc1ccccc1C(=O)Nc1ccccc1C(=O)Nc1cccc(S(=O)(=O)C(F)(F)F)c1 ?
10

###

Population Normal (%) by entry:
tested on: HEK-293T; test: Multiplex assay against HEK293T; assay type: toxicity, cell-based; conditions: human, 48 h, 10 µM, compound concentration 10 uM, replicate 2
Supply the numeric figure in %, leaving out any unit text.

Observe how each entry below is paired with its result.
COc1ccc(-c2ccc3ncc4c(c3c2)n(-c2ccc(N3CCNCC3)c(C(F)(F)F)c2)c(=O)n4C)cn1.O=C(O)/C=C\C(=O)O	55
CC(C)c1noc(N2CCC(COc3ccc(-c4ccc(S(C)(=O)=O)cc4)nc3)CC2)n1	96
CCc1nn(CCCN2CCN(c3cccc(Cl)c3)CC2)c(=O)n1CCOc1ccccc1.Cl [NEFAZODONE HYDROCHLORIDE]	87
COC(=O)C1=C(C)NC(C)=C(C(=O)OCCCN2CCC(c3ccccc3)(c3ccccc3)CC2)[C@H]1c1cccc([N+](=O)[O-])c1	94
O=c1cc(N2CCOCC2)oc2c(-c3cccc4c3sc3ccccc34)cccc12	91

Find Population Normal (%) (HEK-293T) for the entry COc1ccccc1CN[C@H]1C2CCN(CC2)[C@H]1C(c1ccccc1)c1ccccc1
97

Then what about the compound Cc1c[nH]c2nccc(Oc3c(F)cc(Nc4cc(Cl)nc(N)n4)cc3F)c12 ?
96

Then what about the compound Cc1ccc2c(c1)c1c(n2CCc2ccc(C)nc2)CCN(C)C1 [LATREPIRDINE] ?
86

###

Population Hoechst High Intensity Objects (%) by entry:
system: U2OS; assay: Multiplex assay against U2OS; format: toxicity, cell-based; conditions: human, 48 h, 10 µM, compound concentration 10 uM, replicate 1
Supply the numeric figure in %, leaving out any unit text.

Observe how each entry below is paired with its result.
CC1=C(C(=O)Nc2cc3cn[nH]c3cc2F)C(c2ccc(C(F)(F)F)cc2)CC(=O)N1 (stereo not drawn)	2
COc1ccccc1CN[C@H]1C2CCN(CC2)[C@H]1C(c1ccccc1)c1ccccc1	4
Cc1ccc(C)c(Oc2ccncc2C(=O)N2CCN(C3CC3)c3ccccc32)c1	9
CC(C)(C)NC[C@H](O)COc1nsnc1N1CCOCC1	2
CC(C)c1noc(N2CCC(COc3ccc(-c4ccc(S(C)(=O)=O)cc4)nc3)CC2)n1	8

Fill in the blank: the reported Population Hoechst High Intensity Objects (%) of COc1ccc(-c2ccc3ncc4c(c3c2)n(-c2ccc(N3CCNCC3)c(C(F)(F)F)c2)c(=O)n4C)cn1.O=C(O)/C=C\C(=O)O is ____.
18

Then what about the compound CCCSc1nc(N[C@@H]2C[C@H]2c2ccc(F)c(F)c2)c2nnn([C@@H]3C[C@H](OCCO)[C@@H](O)[C@H]3O)c2n1 ?
8

Then what about the compound CN1CCN(Cc2ccc(Nc3ncc(Cl)c(Nc4ccccc4S(=O)(=O)N(C)C)n3)cc2)CC1 ?
30

###

system: U2OS; assay: Incucyte cell viability with U2OS; assay type: toxicity, cell-based; conditions: human, 18 h, 10 µM, compound concentration 10 uM, replicate number 1, timepoint 18 hours; also: filed as whole numbers so only -1 and 0 and 1 occur
endpointName: Growth Rate
Format: numeric value only, no unit, no commentary.

CNC(=O)Nc1ccc2c(c1)[C@@]1(CC2)OC(=O)N(CC(=O)N(Cc2ccc(F)cc2)[C@@H](C)C(F)(F)F)C1=O [A-486]	0

Find Growth Rate (U2OS) for the entry O=C1CCc2cc(Nc3cc(OC4CCOCC4)c([N+](=O)[O-])cc3Cl)ccc2N1
0

###

test system: HEK-293T; experiment: Multiplex assay against HEK293T; assay type: toxicity, cell-based; details: human, 24 h, 1 µM, compound concentration 1 uM, replicate 1
Population Normal (%) by entry:
Supply the numeric figure in %, leaving out any unit text.

CCOC(=O)Nc1cc(-c2ccc(C)c(NS(C)(=O)=O)c2)nn2c(C)nnc12	92
COc1ccc(-c2ccc3ncc4c(c3c2)n(-c2ccc(N3CCNCC3)c(C(F)(F)F)c2)c(=O)n4C)cn1.O=C(O)/C=C\C(=O)O [BGT-226]	79
CC(C)OC(=O)N1CCC(Oc2ncnc3c2cnn3-c2ccc(S(C)(=O)=O)cc2F)CC1	84
CC(C)NC(=O)N1CC[C@H](NC2=Nc3cc(F)ccc3N(CC(F)F)c3ccc(Cl)cc32)C1	79
COc1cc2ncn(-c3cc(OCc4ccccc4C(F)(F)F)c(C(N)=O)s3)c2cc1OC [GW843682X]	80

Fill in the blank: the reported Population Normal (%) of CCc1ccc(OCc2ccccc2C(=O)Nc2ccc3nc(C)cc(N)c3c2)cc1.Cl is ____.
80

Then what about the molecule CNC(=O)Nc1ccc2c(c1)[C@@]1(CC2)OC(=O)N(CC(=O)N(Cc2ccc(F)cc2)[C@@H](C)C(F)(F)F)C1=O [A-486] ?
89

Then what about the molecule CC(C)Oc1ccccc1C(=O)Nc1ccccc1C(=O)Nc1cccc(S(=O)(=O)C(F)(F)F)c1 ?
85

###

test system: Fibroblast; experiment: Multiplex assay against human fibroblast; format: toxicity, cell-based; conditions: 24 h, 1 µM, compound concentration 1 uM, replicate 1
# binarize Population Fragmented Nuclei (%): threshold 20% inclusive, high side rule met, low side rule not met

Below are worked cases with known answers.
C=CC(=O)Nc1cccc(Sc2nc(Nc3ccc(N4CCN(C)CC4)cc3)ncc2Cl)c1	rule met
COc1cc(Nc2nccc(-c3cnn4nc(OC)ccc34)n2)cc(C(F)(F)F)c1	rule met
CC(C)(C)NC[C@H](O)COc1nsnc1N1CCOCC1	rule not met
O=c1[nH]c2ccccc2n1C1CCN(Cc2ccc(-c3[nH]c4cc5ncnc5cc4nc3-c3ccccc3)cc2)CC1	rule met

Kindly consider the entry below.
Reported Population Fragmented Nuclei (%) at or above 20%? COC(=O)C1=C(C)NC(C)=C(C(=O)OCCCN2CCC(c3ccccc3)(c3ccccc3)CC2)[C@H]1c1cccc([N+](=O)[O-])c1
rule met
